# ASSAYED_TARGET: Full-length glucokinase (beta cell isoform) (Homo sapiens, UniProt P35557)
# Construct: Full-length glucokinase (beta cell isoform) was His-tagged at N-terminus; His tag (N); made in house; host or cells: E. coli BL21(DE3), pBCGK vector
# Sequence (P35557 1-465): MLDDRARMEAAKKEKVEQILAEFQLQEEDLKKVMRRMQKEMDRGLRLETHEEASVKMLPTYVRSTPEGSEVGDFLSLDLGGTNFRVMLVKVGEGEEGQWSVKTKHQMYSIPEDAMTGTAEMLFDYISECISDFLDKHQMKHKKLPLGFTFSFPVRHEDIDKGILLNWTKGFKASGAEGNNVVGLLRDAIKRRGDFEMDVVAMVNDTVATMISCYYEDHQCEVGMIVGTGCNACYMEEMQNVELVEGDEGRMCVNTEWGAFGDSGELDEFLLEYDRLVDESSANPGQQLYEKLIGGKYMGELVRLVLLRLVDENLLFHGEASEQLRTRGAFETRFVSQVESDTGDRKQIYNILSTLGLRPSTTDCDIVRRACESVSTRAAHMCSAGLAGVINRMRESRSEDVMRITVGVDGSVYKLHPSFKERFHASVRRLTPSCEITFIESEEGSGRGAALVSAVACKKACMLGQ
# ASSAY_INFO: Glucokinase activation assay (PK/LDH-coupled, NADH depletion at 340 nm)
# Type: biochemical
# STUDY_CONDITIONS: 5 mM glucose, 2.5 mM ATP, pH 7.1, room temperature; single value or range where N>1; read-out: EC50
READOUT_KIND: EC50 (µM)

CHEM_SMILES: Cc1ccc(NC(=O)[C@H](CC2CCCC2)n2ncc(C(F)(F)F)c2C)nc1
MEASUREMENT_UNITS: µM
EC50: 28

1 = Cc1cn([C@@H](CC2CCCC2)C(=O)Nc2ccc(C(=O)O)cn2)nc1C(F)(F)F
2 = Cn1ccc(NC(=O)[C@H](CC2CCOCC2)n2cnc(C(F)(F)F)c2)n1
Asked: Lab notebook, comparison: 1 versus 2 , higher EC50 goes to which? Give the chosen item's label as your response.
Given back: 2

P = Cc1cnc(NC(=O)[C@H](CC2CCCC2)n2cnc(S(C)(=O)=O)c2)cn1
Q = CC(C)(O)Cn1ccc(NC(=O)[C@H](CC2CCCC2)n2cnc(C(F)(F)F)c2)n1
Asked: Lab notebook, comparison: P versus Q , higher EC50 goes to which? Give the chosen item's label as your response.
Given back: P

Where these numbers come from: patent US8389552B2
